# assayed system: EPHB1 (UniProt P54762)
# Sequence (P54762 whole entry, looked up): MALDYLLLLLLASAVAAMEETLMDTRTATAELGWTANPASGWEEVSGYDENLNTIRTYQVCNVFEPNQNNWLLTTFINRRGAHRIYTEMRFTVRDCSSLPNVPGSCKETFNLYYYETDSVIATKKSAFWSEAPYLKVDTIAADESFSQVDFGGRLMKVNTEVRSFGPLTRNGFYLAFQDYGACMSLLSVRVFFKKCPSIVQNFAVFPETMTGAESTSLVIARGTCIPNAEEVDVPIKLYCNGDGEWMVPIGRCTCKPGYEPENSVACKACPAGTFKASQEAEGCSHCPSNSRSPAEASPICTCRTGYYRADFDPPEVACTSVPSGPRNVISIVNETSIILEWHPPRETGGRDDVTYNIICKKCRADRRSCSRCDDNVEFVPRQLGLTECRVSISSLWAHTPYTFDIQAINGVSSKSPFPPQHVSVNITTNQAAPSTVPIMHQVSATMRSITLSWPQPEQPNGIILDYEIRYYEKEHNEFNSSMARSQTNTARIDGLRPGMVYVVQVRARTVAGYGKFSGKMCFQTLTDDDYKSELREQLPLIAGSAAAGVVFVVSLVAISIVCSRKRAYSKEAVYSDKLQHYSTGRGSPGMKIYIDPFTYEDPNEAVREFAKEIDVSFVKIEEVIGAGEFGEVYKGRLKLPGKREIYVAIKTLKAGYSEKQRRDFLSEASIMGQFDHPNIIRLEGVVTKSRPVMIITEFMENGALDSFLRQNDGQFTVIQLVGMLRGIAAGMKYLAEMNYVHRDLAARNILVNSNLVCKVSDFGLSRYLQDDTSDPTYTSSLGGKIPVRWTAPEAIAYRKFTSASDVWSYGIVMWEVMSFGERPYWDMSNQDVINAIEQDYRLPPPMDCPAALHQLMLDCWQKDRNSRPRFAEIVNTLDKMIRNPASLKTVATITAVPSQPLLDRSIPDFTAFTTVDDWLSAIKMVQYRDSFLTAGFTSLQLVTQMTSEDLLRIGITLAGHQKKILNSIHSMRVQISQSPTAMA
# test description: phosphorylation enrichment, bacterial display (enrichment ratio); higher = better substrate or ligand; peptides without Tyr show the background;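 also: 11-residue human phosphosite peptides and single-mutation variants displayed on the E. coli surface, counted by deep sequencing, each peptide's frequency after selection divided by its frequency in the unselected input library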;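 also: frequency after pTyr selection over input frequency; kinase dosed for 20-30% of maximal phosphorylation in three min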
assay readout: phosphorylation enrichment

INPUT: # phosphorylation enrichment lookup, item GEIQEYGAPSD [ABCC1_Y1508]
OUTPUT: 0.493

INPUT: # phosphorylation enrichment lookup, item KDQGIYEDFVE [MYL6_Y86_T85I_YF]
OUTPUT: 0.831

INPUT: # phosphorylation enrichment lookup, item GLALRCLSDHS [VWF_Y1584_Y1584C]
OUTPUT: 0.592

INPUT: # phosphorylation enrichment lookup, item WTAHSYRMGSA [ARHGEF7_Y785_T790A]
OUTPUT: 0.477

INPUT: # phosphorylation enrichment lookup, item MMVGAYSTLEG [ECPAS_Y470]
OUTPUT: 0.735

INPUT: # phosphorylation enrichment lookup, item PLKYLYPNIDK [STAT1_Y668]
OUTPUT: 0.638

INPUT: # phosphorylation enrichment lookup, item AALSAYAPQRP [PTPRN2_Y249_A251P]
OUTPUT: 0.54

INPUT: # phosphorylation enrichment lookup, item AGIENYKSRFG [NKD2_Y256_T257K]
OUTPUT: 0.451

INPUT: # phosphorylation enrichment lookup, item VGTKRYVAPEV [ACVRL1_Y375_M376V]
OUTPUT: 0.309

INPUT: # phosphorylation enrichment lookup, item LSNPAYCLLLA [DDR1_Y513_R514C]
OUTPUT: 1.05

INPUT: # phosphorylation enrichment lookup, item SVTCTYPPALN [TP53_Y126_S127P]
OUTPUT: 0.471

INPUT: # phosphorylation enrichment lookup, item LVTAWYIGFLC [KCNQ2_Y237]
OUTPUT: 1.12

INPUT: # phosphorylation enrichment lookup, item ERPGVHTNVVE [F11_Y608_Y608H]
OUTPUT: 0.598

INPUT: # phosphorylation enrichment lookup, item ANNPLYKEATP [ITGB3_Y773_S778P]
OUTPUT: 0.45

INPUT: # phosphorylation enrichment lookup, item ACQGKYTPSGQ [ALDOA_Y343]
OUTPUT: 0.414

INPUT: # phosphorylation enrichment lookup, item ILNANYMAKRL [GLDC_Y839]
OUTPUT: 0.334

INPUT: # phosphorylation enrichment lookup, item NIKKEYTKMVQ [PMS2_Y181_A182T]
OUTPUT: 0.394

INPUT: # phosphorylation enrichment lookup, item RKMSSYAFFVQ [HMGB1_Y16_G11R]
OUTPUT: 0.436

The values you see were collected from the supplement of paper PMC10065799.
